Here, each record is paired with measured cell viability data.
- Tested on: SEM cells
- measurement_description: cell viability relative to DMSO control; higher = less cytotoxic
- recorded_conditions: HPLM + 10% dialyzed FBS; 48 h; 1.71 µM

molecule | cell viability (%)
CN[C@@H](C)[C@H]1[C@H](O)C[C@@]2(C)[C@@H]3CC[C@H]4C(C)(C)[C@@H](NC)CC[C@@]45C[C@@]35CC[C@]12C | 98.4
CC[S+](=O)([O-])c1cccc(-c2cc(C(=O)NC3CCN(C)CC3)c(C)c3[nH]c4ncc(C)cc4c23)c1 | 38.6
CC(C)C1NC(=O)C(NC(=O)C2=C3\N=C\4/C(=C(C)\C(=O)\C(=C4C(=O)NC5C(C)OC(=O)C(C(C)C)N(C)C(=O)CN(C)C(=O)C6CCCN6C(=O)C(NC5=O)C(C)C)N)OC3=C(C)C=C2)C(C)OC(=O)C(C(C)C)N(C)C(=O)CN(C)C(=O)C7CCCN7C1=O (stereo not drawn) | 5.02
C[C@](Cc1c[nH]c2ccccc12)(NC(=O)OC1C2CC3CC(C2)CC1C3)C(=O)NC[C@H](NC(=O)CCC(=O)O)c1ccccc1 (stereo partly drawn) | 123
O=C(O)Cn1nnc(-c2cc(N3CCC(Oc4cc(F)ccc4Br)CC3)no2)n1 | 102
CC(C)c1ccc2c(c1)c(SC(C)(C)C)c(CC(C)(C)C(=O)[O-])n2Cc1ccc(Cl)cc1 | 101
O=C1[C@H](Cc2ccc(O)cc2)N2C(=O)CCN(C(=O)NCc3ccccc3)[C@H]2CN1Cc1cccc2ccccc12 | 62.8
CC(C)CNc1ccnc(NCc2csc(-c3ccccc3)n2)n1 | 120
CCC[S+]([O-])c1ccc2[nH]c(NC(=O)OC)nc2c1 (stereo not drawn) | 94.9
OC[C@@H](O)[C@@H](O)[C@H](O)[C@@H](O)CO | 60
COc1ccc([S+](=O)([O-])N(C(C)=O)c2ccccc2/C=C/c2cc[n+]([O-])cc2)cc1 | 55.4
CCN(CC)CCCCNc1ncc2cc(-c3cc(OC)cc(OC)c3)c(NC(=O)NC(C)(C)C)nc2n1 | 84
S=C(NCc1ccc2c(c1)OCO2)N1CCN(c2ncnc3c2oc2ccccc23)CC1 | 124

----------
Here, each record is paired with measured cell viability data.
- Tested on: SEM cells
- measurement_description: cell viability relative to DMSO control; higher = less cytotoxic
- recorded_conditions: RPMI 5 mM glucose + 10% FBS; 48 h; 0.0211 µM
quantity_measured: cell viability (%)

compound_string | system | readout_units | numeric_value
CN1CCN(C2=Nc3cc(Cl)ccc3Nc3ccccc32)CC1 | SEM cells | % | 96.1
CN(C)[S+](=O)([O-])c1ccc2c(c1)C(=Cc1cc3c([nH]1)CCCC3)C(=O)N2 | SEM cells | % | 103
Cc1onc(-c2ccccc2Cl)c1C(=O)N[C@@H]1C(=O)N2[C@@H]1SC(C)(C)[C@@H]2C(=O)[O-] | SEM cells | % | 109

----------
Here, each record is paired with measured cell viability data.
- Tested on: NOMO1
- measurement_description: cell viability relative to DMSO control; higher = less cytotoxic
- recorded_conditions: HPLM + 10% dialyzed FBS; 48 h; 0.00234 µM
quantity_measured: cell viability (%)

molecule | quantity_measured | readout_units | numeric_value
COc1ccc(-c2ccc3ncc4c(c3c2)n(-c2ccc(N3CCNCC3)c(C(F)(F)F)c2)c(=O)n4C)cn1 | cell viability | % | 79.7
C[C@]12CC[C@H]3[C@@H](CC[C@H]4NC(=O)\C=C/[C@]34C)[C@@H]1CC[C@@H]2C(=O)NC5=CC(=CC=C5C(F)(F)F)C(F)(F)F | cell viability | % | 123
Cc1nc2cnc3ccc(C#Cc4cccnc4)cc3c2n1-c1ccc(C(C)(C)C#N)cc1 | cell viability | % | 84.9
O=C(O)Cn1nnc(-c2cc(N3CCC(Oc4cc(F)ccc4Br)CC3)no2)n1 | cell viability | % | 97.7
CNC(=O)c1ccc2cc(C3(O)CCn4cncc43)ccc2c1 (configuration not stated) | cell viability | % | 131
CCc1ccc(CCOc2ccc(CC3SC(=O)NC3=O)cc2)nc1 (configuration not stated) | cell viability | % | 106
CC1=C(C)C(=O)C(C(CCCCCC(=O)O)c2ccccc2)=C(C)C1=O (configuration not stated) | cell viability | % | 78.1

----------
- System: NOMO1
- measurement_description: AUC of viability dose-response curve (% viability x log10 dose units); higher = less sensitive
- recorded_conditions: RPMI 5 mM glucose + 10% FBS; 48 h
Values of AUC of viability dose-response curve strictly less than 400 map to yes (1), and values of at least 400 map to no (0).

molecule | class_label
Cc1ccccc1C(=O)c1ccc(Nc2ccc(Br)cc2N)cc1Cl | no (0)
CC(C)OC(=O)C(C(=O)OC(C)C)=C1S\C=C/S1 | no (0)
COc1ccc([S+](=O)([O-])N(C(C)=O)c2ccccc2/C=C/c2cc[n+]([O-])cc2)cc1 | yes (1)
CCc1ccc(CCOc2ccc(CC3SC(=O)NC3=O)cc2)nc1 (stereo not drawn) | no (0)
CC[C@H](/C=C/[C@@H](C)[C@H]1CC[C@H]2[C@@H]3CC=C4C[C@@H](O)CC[C@]4(C)[C@H]3CC[C@]12C)C(C)C | no (0)
COc1ccc(-c2ccc3ncc4c(c3c2)n(-c2ccc(N3CCNCC3)c(C(F)(F)F)c2)c(=O)n4C)cn1 | yes (1)
OC[C@@H](O)[C@@H](O)[C@H](O)[C@@H](O)CO | no (0)
O=c1[nH]c(=O)n([C@H]2C[C@H](O)[C@@H](CO)O2)cc1/C=C/Br | no (0)
